Every entry's value here was drawn from patent US5710160A.

target: GST fusion protein of the human recombinant phosphodiesterase IVa (met-248) (Homo sapiens, UniProt P27815); construct: GST-Met 248 PDE IVa; experiment: SPA based PDE activity assay (hydrolysis of cAMP to AMP); conditions: 100 nM cAMP; purified GST fusion protein, baculovirus/Sf-9; 10 min at 30° C
Sequence (P27815 248-886 limits assumed): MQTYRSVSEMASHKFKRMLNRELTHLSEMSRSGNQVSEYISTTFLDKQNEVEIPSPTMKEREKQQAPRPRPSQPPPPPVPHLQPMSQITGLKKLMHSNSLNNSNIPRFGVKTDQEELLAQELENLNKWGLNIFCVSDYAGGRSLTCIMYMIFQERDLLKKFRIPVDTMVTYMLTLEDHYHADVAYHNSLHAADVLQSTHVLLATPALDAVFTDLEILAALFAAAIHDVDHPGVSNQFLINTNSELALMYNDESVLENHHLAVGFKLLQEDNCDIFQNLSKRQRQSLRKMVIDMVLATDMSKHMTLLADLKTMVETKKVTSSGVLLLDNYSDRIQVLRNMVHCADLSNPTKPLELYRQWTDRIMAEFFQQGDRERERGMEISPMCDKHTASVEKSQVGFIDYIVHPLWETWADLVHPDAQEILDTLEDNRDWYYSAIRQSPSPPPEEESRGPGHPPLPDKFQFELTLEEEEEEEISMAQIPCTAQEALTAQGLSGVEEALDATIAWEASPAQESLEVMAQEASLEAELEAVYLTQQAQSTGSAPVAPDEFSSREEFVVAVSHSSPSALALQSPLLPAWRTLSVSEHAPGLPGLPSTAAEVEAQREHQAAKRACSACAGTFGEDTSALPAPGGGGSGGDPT
assay-metric: IC50 (nM)
Form entry: value (nM) — number only.

Examples from the recorded data:
{"compound": "COc1ccc([C@H](Cc2ccncc2)c2ccc(C=NO)cc2)cc1OC1CCCC1", "IC50 / nM": 3}
{"compound": "COc1ccc([C@H](Cc2ccncc2)c2ccc(C(=O)N3CCN(C)CC3)cc2)cc1OC1CCCC1", "IC50 / nM": 0.8}
{"compound": "COc1ccc([C@H](Cc2ccncc2)c2ccc(-c3nnn[nH]3)cc2)cc1OC1CCCC1", "IC50 / nM": 2}
{"compound": "COc1ccc([C@H](Cc2ccncc2)c2ccc(C(C)O)cc2)cc1OC1CCCC1 (stereo partly drawn)", "IC50 / nM": 2}
{"compound": "COc1ccc([C@H](Cc2ccncc2)c2ccc(C(=O)N3CCCC3)cc2)cc1OC1CCCC1", "IC50 / nM": 1}

Let's switch to this compound now.
Request: What value of IC50 has been recorded for this entry: `COc1ccc([C@H](Cc2ccncc2)c2ccc(C(C)=O)cc2)cc1OC1CCCC1`
Result: 3
